Origin of measurements: patent US12624112

Molecular target: T1, ST2 on the effector cells (KU812, KU812/NF-κB-1#, HUVEC, HMC-1) (human, UniProt Q01638 19-556)
T1 sequence (looked up): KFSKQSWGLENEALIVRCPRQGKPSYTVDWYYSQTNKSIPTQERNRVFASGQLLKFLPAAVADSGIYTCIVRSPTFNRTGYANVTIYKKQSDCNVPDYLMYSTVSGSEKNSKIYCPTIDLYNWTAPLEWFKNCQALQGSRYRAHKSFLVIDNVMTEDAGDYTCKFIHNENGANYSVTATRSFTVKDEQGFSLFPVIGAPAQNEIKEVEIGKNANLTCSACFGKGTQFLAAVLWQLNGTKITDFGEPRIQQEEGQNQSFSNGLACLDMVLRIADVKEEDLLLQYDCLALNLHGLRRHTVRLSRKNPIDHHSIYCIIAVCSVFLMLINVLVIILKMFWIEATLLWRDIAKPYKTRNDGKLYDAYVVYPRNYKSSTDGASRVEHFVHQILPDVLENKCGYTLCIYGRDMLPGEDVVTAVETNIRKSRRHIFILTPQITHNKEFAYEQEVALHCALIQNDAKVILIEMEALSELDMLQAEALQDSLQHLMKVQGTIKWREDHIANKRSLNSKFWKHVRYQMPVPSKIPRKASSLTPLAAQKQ
Assay: cell-based or functional assay
assay-readout: Maximum inhibition rate, KU812-IL5 production by reduced IL33 (%)
Use % as the unit, but write only the number.

See these solved cases before continuing.
>  <binder>
5888-116-H0L1 (antibody, human IgG4 S228P, kappa, V domains shown, Humanized antibody) VH: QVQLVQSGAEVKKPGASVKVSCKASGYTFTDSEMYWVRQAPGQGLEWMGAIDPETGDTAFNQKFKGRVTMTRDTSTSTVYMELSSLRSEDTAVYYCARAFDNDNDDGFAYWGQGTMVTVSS VL: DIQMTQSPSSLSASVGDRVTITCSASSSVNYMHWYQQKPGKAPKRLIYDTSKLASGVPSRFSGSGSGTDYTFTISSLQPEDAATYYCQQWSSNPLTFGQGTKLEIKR

>  <unit-annotation>
%

>  <endpoint-result>
75.1

$$$$
>  <binder>
5888-379-H2L1 (antibody, human IgG4 S228P, kappa, V domains shown, Humanized antibody) VH: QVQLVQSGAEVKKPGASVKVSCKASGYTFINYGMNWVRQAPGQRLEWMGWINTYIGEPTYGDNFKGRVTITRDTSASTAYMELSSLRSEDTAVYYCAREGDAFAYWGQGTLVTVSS VL: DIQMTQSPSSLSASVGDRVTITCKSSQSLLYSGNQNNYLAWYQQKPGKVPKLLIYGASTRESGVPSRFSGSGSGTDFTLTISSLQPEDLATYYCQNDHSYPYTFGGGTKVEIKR

>  <unit-annotation>
%

>  <endpoint-result>
96.7

$$$$
>  <binder>
5886-156-H1L0 (antibody, human IgG4 S228P, kappa, V domains shown, Humanized antibody expressed in CHO-K1, purified by protein A) VH: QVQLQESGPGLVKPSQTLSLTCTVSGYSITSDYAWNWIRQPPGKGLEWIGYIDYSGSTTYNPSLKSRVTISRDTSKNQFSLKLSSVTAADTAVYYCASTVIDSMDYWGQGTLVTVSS VL: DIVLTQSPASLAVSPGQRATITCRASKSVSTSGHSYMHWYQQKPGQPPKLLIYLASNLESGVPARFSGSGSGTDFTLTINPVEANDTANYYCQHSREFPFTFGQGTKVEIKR

>  <unit-annotation>
%

>  <endpoint-result>
93.4

$$$$

IN: Tell me measured Maximum inhibition rate, KU812-IL5 production by reduced IL33 for 5888-153-H3L1 (antibody, human IgG4 S228P, kappa, V domains shown, Humanized antibody) VH: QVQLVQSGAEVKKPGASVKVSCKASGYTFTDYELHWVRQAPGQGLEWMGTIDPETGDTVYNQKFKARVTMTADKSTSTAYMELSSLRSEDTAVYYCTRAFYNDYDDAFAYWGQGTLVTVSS VL: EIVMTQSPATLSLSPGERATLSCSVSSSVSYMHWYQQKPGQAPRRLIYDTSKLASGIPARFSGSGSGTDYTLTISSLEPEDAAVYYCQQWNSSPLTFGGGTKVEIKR please.
OUT: 86.9
